target: p110 delta (Homo sapiens (Human)); test: PI3K isoform inhibition assay, p110 delta (fluorescence polarization displacement)
Sequence (O00329 whole entry, canonical isoform): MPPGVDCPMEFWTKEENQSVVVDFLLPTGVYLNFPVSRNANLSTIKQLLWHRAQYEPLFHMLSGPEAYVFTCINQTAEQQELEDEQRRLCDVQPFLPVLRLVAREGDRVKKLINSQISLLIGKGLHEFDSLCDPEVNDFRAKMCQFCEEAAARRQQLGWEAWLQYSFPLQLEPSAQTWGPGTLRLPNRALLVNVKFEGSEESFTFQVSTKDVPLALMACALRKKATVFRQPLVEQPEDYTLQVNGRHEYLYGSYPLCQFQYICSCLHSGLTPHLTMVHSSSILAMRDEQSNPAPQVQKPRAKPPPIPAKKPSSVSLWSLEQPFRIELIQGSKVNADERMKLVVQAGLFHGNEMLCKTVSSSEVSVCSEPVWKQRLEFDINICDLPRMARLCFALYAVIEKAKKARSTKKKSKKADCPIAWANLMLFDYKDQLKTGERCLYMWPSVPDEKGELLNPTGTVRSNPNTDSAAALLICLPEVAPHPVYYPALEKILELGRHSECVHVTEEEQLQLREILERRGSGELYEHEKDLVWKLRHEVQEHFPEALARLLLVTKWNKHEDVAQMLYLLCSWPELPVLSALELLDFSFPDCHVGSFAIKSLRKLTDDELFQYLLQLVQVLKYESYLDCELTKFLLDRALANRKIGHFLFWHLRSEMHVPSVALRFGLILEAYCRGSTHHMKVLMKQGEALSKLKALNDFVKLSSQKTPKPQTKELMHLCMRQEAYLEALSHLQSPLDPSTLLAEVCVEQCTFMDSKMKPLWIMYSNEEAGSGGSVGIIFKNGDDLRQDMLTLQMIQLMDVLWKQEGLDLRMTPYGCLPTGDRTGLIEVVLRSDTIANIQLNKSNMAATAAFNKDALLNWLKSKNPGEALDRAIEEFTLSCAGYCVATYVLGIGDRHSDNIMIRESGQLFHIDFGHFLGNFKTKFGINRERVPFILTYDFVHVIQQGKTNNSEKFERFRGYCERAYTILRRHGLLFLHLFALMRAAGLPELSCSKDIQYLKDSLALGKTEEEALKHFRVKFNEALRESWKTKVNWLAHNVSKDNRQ
Sequence (P27986 whole entry partner, canonical isoform): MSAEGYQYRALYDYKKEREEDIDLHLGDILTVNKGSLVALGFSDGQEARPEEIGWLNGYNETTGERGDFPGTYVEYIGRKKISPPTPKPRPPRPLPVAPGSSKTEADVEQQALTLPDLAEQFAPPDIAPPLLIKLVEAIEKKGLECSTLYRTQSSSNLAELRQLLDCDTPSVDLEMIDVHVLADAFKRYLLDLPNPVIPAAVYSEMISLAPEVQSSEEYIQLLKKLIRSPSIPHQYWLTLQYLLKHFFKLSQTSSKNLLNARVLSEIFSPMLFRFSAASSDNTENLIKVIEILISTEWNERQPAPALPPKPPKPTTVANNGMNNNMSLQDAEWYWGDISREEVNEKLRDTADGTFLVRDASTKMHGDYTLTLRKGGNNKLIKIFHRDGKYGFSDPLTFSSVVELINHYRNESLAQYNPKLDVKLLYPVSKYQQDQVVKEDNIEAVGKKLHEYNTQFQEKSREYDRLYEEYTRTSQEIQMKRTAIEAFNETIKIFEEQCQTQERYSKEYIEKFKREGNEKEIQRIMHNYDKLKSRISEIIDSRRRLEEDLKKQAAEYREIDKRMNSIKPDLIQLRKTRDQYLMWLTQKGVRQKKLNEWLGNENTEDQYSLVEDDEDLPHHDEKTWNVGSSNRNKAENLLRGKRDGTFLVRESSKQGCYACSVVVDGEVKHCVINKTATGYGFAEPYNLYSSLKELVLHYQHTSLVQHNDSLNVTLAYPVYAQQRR
READOUT KIND: IC50
State the result as a value with its unit after it.

Some entries whose results are on file:
{"MOLECULE": "CCN(CC)C1CCOC(c2c(-c3ccc4c(c3)OCCn3cc(-c5nc(C)nn5C(C)C)nc3-4)cnn2C)C1 (stereo not drawn) [Example 339]", "RESULT": "1.07 nM"}
{"MOLECULE": "Cc1nc(-c2cn3c(n2)-c2ccc(N4CCCC4C4CCCN(C)C4)cc2OCC3)n(C(C)C)n1 (stereo not drawn) [Example 311]", "RESULT": "1.35 nM"}
{"MOLECULE": "CC(C)n1ncnc1-c1cn2c(n1)-c1ccc(-c3ccccc3S(N)(=O)=O)cc1OCC2", "RESULT": "14 nM"}

Challenge: Any idea what its IC50 is? The molecule is CCN1CCC(C2CCCN2c2ccc3c(c2)OCCn2cc(-c4nc(C)nn4C(C)C)nc2-3)CC1 (stereo not drawn)
Response given: 0.52 nM

Challenge: Item: Cc1nc(-c2cn3c(n2)-c2cc(-c4ccnn4C4CCCN(C(C)(C)CO)C4)c(F)cc2OCC3)n(C(C)C)n1 (stereo not drawn) [Example 353]
Response given: 0.314 nM

Challenge: Item: Cc1nc(-c2cn3c(n2)-c2cnc(-c4cnn(C)c4C4CCCN(C(C)C)C4)cc2OCC3)n(C(C)C)n1 (stereo not drawn)
Response given: 0.571 nM

src = patent US9090628B2
